# Lookup of reported IC50 keyed by entry
Tested on: 134 cancer cell lines
assay-info: Cell viability assay (ATPlite, 72 hours), IC50 on cancer cell line panel
test-context: Homo sapiens, Hs746T, read-out: IC50 in cell proliferation assay
metric: IC50 (nM)

| smiles-str | metric | numeric-readout |
| --- | --- | --- |
| C[C@@H](Oc1cc(-c2cnn(C3CCNCC3)c2)cnc1N)c1c(Cl)ccc(F)c1Cl | IC50 | 15 |
| CNC(=O)c1ccc(-c2cnc3ncc(Cc4ccc5ncccc5c4)n3n2)cc1F | IC50 | 1.23 |

---

# Lookup of reported inhibition at 1 µM keyed by entry
target-of-assay: panel of 255 wild-type kinases (Homo sapiens)
assay-info: Kinase panel profiling at 1 µmol/L (MSA or IMAP), percentage inhibition
Format: biochemical
test-context: kinase SRPK1; 1 µmol/L single concentration; read-out: %-inhibition at 1 µmol/L, SRPK1

| compound | inhibition at 1 µM, % |
| --- | --- |
| CCN1CCN(c2ccc(Nc3cc(N(C)C(=O)Nc4c(Cl)c(OC)cc(OC)c4Cl)ncn3)cc2)CC1 [infigratinib] | -0.85 |
| COC(=O)N[C@@H](C)CNc1nccc(-c2cn(C(C)C)nc2-c2cc(Cl)cc(NS(C)(=O)=O)c2F)n1 [encorafenib] | -5 |
| COc1cc2ncnc(Nc3ccc(F)c(Cl)c3)c2cc1NC(=O)/C=C/CN1CCCCC1 [dacomitinib] | -9.5 |
| CCn1c(=O)c(-c2cc(NC(=O)Nc3ccccc3)c(F)cc2Br)cc2cnc(NC)cc21 [ripretinib] | -13 |
| COc1ccc(CN2C3CC2CN(c2ccc(-c4cc(OCC(C)(C)O)cn5ncc(C#N)c45)cn2)C3)cn1 [selpercatinib] | -9 |
| FC(F)(F)c1ccc(CNc2ccc(Cc3c[nH]c4ncc(Cl)cc34)cn2)cn1 [pexidartinib] | -20 |
| Cn1cc(-c2cc3c(N4CCN(c5ncc([C@@](C)(N)c6ccc(F)cc6)cn5)CC4)ncnn3c2)cn1 [avapritinib] | -12 |

---

Tested on: 134 cancer cell lines
assay-info: Cell viability assay (ATPlite, 72 hours), IC50 on cancer cell line panel
test-context: Homo sapiens, Daoy, read-out: IC50 in cell proliferation assay, cell line Daoy
pIC50: −log10 of the molar value.
# Lookup of reported pIC50 keyed by entry
metric: pIC50

| smiles-str | target-of-assay | op | numeric-readout |
| --- | --- | --- | --- |
| Cc1cc(Nc2ncnc3ccc(NC4=NC(C)(C)CO4)cc23)ccc1Oc1ccn2ncnc2c1 | 134 cancer cell lines | = | 4.52 |
| CO[C@]1(C(=O)N[C@@H](C)c2ccc(-n3cc(F)cn3)nc2)CC[C@H](c2nc(C)cc(Nc3cc(C)[nH]n3)n2)CC1 | 134 cancer cell lines | = | 4.99 |
| COc1ccc(CN2C3CC2CN(c2ccc(-c4cc(OCC(C)(C)O)cn5ncc(C#N)c45)cn2)C3)cn1 | 134 cancer cell lines | = | 5.50 |
| Cc1nc(NC(=O)N2CCC[C@H]2C(N)=O)sc1-c1ccnc(C(C)(C)C(F)(F)F)c1 | 134 cancer cell lines | = | 5.03 |
| Cn1cnc2c(F)c(Nc3ccc(Br)cc3Cl)c(C(=O)NOCCO)cc21 | 134 cancer cell lines | < | 4.50 |

---

# Lookup of reported inhibition at 1 µM keyed by entry
target-of-assay: panel of 255 wild-type kinases (Homo sapiens, UniProt Q9NZJ5)
Sequence (Q9NZJ5 30-1116): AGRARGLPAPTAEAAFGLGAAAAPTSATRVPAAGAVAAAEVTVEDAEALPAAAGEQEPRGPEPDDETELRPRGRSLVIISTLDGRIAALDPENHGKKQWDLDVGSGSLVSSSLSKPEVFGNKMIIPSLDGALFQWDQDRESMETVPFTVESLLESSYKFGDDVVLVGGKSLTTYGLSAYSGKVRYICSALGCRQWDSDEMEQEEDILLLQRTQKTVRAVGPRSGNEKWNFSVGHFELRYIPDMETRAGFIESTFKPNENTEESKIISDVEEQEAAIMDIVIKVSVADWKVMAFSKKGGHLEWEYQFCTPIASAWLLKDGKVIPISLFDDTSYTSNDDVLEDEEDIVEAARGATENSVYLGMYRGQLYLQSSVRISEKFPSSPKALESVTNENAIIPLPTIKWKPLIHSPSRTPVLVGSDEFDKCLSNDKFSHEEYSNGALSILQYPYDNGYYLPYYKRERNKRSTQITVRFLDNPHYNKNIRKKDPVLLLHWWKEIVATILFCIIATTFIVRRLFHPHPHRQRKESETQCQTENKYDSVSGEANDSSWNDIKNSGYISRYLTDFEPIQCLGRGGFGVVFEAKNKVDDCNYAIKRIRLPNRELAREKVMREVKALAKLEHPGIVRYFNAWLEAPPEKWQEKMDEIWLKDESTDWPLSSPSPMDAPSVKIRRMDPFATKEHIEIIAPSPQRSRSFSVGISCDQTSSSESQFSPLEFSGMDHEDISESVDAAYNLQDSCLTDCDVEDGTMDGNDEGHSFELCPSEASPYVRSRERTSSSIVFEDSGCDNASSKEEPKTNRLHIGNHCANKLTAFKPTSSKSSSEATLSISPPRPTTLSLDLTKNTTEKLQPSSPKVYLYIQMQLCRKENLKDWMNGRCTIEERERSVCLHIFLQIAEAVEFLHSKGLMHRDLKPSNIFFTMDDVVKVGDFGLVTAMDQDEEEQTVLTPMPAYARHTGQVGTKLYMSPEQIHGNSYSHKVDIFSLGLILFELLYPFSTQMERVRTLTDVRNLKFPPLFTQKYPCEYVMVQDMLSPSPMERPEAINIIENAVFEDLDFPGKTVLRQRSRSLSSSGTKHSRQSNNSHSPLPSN
assay-info: Kinase panel profiling at 1 µmol/L (MSA or IMAP), percentage inhibition
Assay type: biochemical
test-context: kinase PEK; 1 µmol/L single concentration; read-out: %-inhibition at 1 µmol/L, PEK
metric: inhibition at 1 µM (%)

| compound | readout-unit | numeric-readout |
| --- | --- | --- |
| Cn1cnc2c(F)c(Nc3ccc(Br)cc3Cl)c(C(=O)NOCCO)cc21 [selumetinib] | % | -0.188 |
| CCN1C(=O)N(c2c(F)c(OC)cc(OC)c2F)Cc2cnc3[nH]c(CN4CCOCC4)cc3c21 [pemigatinib] | % | 17 |
| FC(F)(F)c1ccc(CNc2ccc(Cc3c[nH]c4ncc(Cl)cc34)cn2)cn1 [pexidartinib] | % | -10 |
| CCN1CCN(c2ccc(Nc3cc(N(C)C(=O)Nc4c(Cl)c(OC)cc(OC)c4Cl)ncn3)cc2)CC1 [infigratinib] | % | 49 |
| C=CC(=O)N1CCC([C@@H]2CCNc3c(C(N)=O)c(-c4ccc(Oc5ccccc5)cc4)nn32)CC1 [zanubrutinib] | % | 2 |
| Cn1cnc2c(F)c(Nc3ccc(Br)cc3F)c(C(=O)NOCCO)cc21 [binimetinib] | % | 4.67 |
| COc1cc2ncnc(Nc3ccc(F)c(Cl)c3)c2cc1NC(=O)/C=C/CN1CCCCC1 [dacomitinib] | % | 2.82 |
| Cc1cc(Nc2ncnc3ccc(NC4=NC(C)(C)CO4)cc23)ccc1Oc1ccn2ncnc2c1 [tucatinib] | % | 1.59 |
| CO[C@]1(C(=O)N[C@@H](C)c2ccc(-n3cc(F)cn3)nc2)CC[C@H](c2nc(C)cc(Nc3cc(C)[nH]n3)n2)CC1 [pralsetinib] | % | 2.26 |
| COc1ccc(CN2C3CC2CN(c2ccc(-c4cc(OCC(C)(C)O)cn5ncc(C#N)c45)cn2)C3)cn1 [selpercatinib] | % | 2.16 |
